- Experimental target: S1P1 (Homo sapiens, UniProt P21453)
- Construct: host or cells: HUVEC (pooled donors)
- Sequence (P21453 whole entry): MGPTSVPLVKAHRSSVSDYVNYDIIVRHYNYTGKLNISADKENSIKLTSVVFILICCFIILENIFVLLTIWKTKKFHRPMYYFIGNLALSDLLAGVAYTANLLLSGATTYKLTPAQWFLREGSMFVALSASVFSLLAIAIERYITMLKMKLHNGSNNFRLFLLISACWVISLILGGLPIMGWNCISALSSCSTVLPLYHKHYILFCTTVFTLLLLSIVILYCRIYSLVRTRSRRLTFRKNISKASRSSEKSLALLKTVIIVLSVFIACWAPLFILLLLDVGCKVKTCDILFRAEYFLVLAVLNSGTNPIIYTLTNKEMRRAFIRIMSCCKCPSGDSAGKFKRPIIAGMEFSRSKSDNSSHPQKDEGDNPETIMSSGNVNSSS
- Test summary: Label-free impedance assay in HUVEC, first stimulation (early and late BNCI response)
- Assay type: cell-based
- Condition label: BNCI curve maximum, early response, arithmetic mean
Provide the recorded Early phase Max for the entries that follow.
Numbers only.

Below, 2 compounds whose answers are already recorded.
>>> print(df.to_string())
                                   compound  measured_parameter  observed_measurement
0  Cc1cc(-c2nc3cnc(Oc4cccc(Cl)c4)nc3o2)cc(C)c1OCC(=O)O [SAR247799]     Early phase Max                 0.527
1  CCc1cc(/C(C)=N/OCc2ccc(C3CCCCC3)c(C(F)(F)F)c2)ccc1CN1CC(C(=O)O)C1 [Siponimod, siponimod]     Early phase Max                 0.440

# batch size: 2; output Early phase Max per entry
1. CC(C)Oc1ccc(-c2nc(-c3cccc4c3CC[C@@H]4NCCO)no2)cc1C#N [Ozanimod, ozanimod]
2. CCC/N=C1\S/C(=C\c2ccc(OC[C@H](O)CO)c(Cl)c2)C(=O)N1c1ccccc1C [Ponesimod, ponesimod]

Ans:
1: 0.461; 2: 0.582
